The measured values listed here are drawn from PubChem BioAssay AID1159580.

- ASSAY_SUMMARY: chemical genetic growth profiling, strain panel (AID 1159580);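 further: tested at 20 µM; growth read once vehicle control cultures reached saturation at 30 °C; 1 = growth at the plate median or of vehicle wells; lower values mean less growth of the strain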
- COND: S. cerevisiae deletion strains, growth OD, locus YHR079C, strain IRE1 (second series), active compounds read low
Screen size: about 5,500 compounds; about 2,000 (36%) were called active. About 18% were inconclusive and are not listed. Some of the results follow.
MEASURED_METRIC: normalized growth

Some compounds with recorded normalized growth:
{"columns": ["COMPOUND", "normalized growth"],
 "data": [
  ["C[C@@H]1CC[C@H]2C(C)(C)C3CC12CC[C@@]3(C)O (some centres not stated)", "1.02 (inactive)"],
  ["CC(=O)O[C@@H]1CC2C(C)(C)C(=O)C3OC3[C@]2(C)C2CC[C@@]3(C)[C@H](c4ccoc4)OC(=O)C4OC43[C@@]21C (some centres not stated)", "1 (inactive)"],
  ["Cc1nnc(NS(=O)(=O)c2ccc(N)cc2)s1", "0.96 (inactive)"],
  ["COc1cc2c(cc1OC)C1(O)C(=O)c3ccc(O)c(C(=O)O)c3OC1CO2 (configuration not stated)", "0.99 (inactive)"],
  ["CC1CCC(NC(=O)N(CCCl)N=O)CC1 (configuration not stated)", "1 (inactive)"]
]}

Batch: normalized growth for all items listed.
1. Clc1ccc(COC(Cn2ccnc2)c2ccc(Cl)cc2Cl)cc1 (configuration not stated)
2. C[C@]12CCC3c4ccc(OC(=O)CCC(=O)O)cc4CCC3C1CCC2=O (some centres not stated)

Reply text:
["0.058 (active)", "0.99 (inactive)"]
